This collection of values is drawn from patent US10597388B2.

Tested on: waterhemp_RES1 (ALS & Triazine resistant common waterhemp, Amaranthus rudis)
Assay: Test E greenhouse herbicide test, postemergence
Assay type: in vivo
Details: 125 g ai/ha, scale 0 to 100 (0 no effect, 100 complete control)

molecular.string | Plant response rating, Waterhemp_RES1
Cc1cc(C)c2sc(C)c(-c3c(OC(=O)OCCCl)c(C)nn(C)c3=O)c2c1 | 75
CCOC(=O)Oc1c(C)nn(C)c(=O)c1-c1c(C)sc2c(C)cc(C)cc12 | 80
CSCC(=O)Oc1c(C)nn(C)c(=O)c1-c1cccc2ccccc12 | 75
CCC(=O)Oc1c(C)nn(C)c(=O)c1-c1c(C)sc2ccc(C)cc12 | 70

====

System: chickweed (common chickweed, Stellaria media)
Test: Test D controlled growth environment herbicide test, pre- and postemergence
Format: in vivo
Settings: Postemergence, 250 g ai/ha; scale 0 to 100 (0 no effect, 100 complete control)
Entries and their Plant response rating, Chickweed

molecular.string | Plant response rating, Chickweed
Cc1cc(C)c2sc(C)c(-c3c(OC(=O)OC(C)C)c(C)nn(C)c3=O)c2c1 | 100
CC(=O)Oc1c(C)nn(C)c(=O)c1-c1c(C)sc2c(C)cc(C)cc12 | 100
Cc1ccc2ccc(C)c(-c3c(O)c(C)nn(C)c3=O)c2c1 | 100
CC(=O)Oc1c(C)nn(C)c(=O)c1-c1ccc(F)c2ccccc12 | 100
COc1nn(C)c(=O)c(-c2c(C)ccc3ccccc23)c1O | 100
CC(=O)Oc1c(C)nn(C)c(=O)c1-c1c(C)cc(C)c2ccccc12 | 100
Cc1ccc(-c2c(O)c(Br)nn(C)c2=O)c2ccccc12 | 100

====

System: oat, wild (wild oat, Avena fatua)
Assay: Test C greenhouse herbicide test, postemergence
Assay type: in vivo
Conditions: Postemergence, 62 g ai/ha; 0 to 100 scale (0 no effect, 100 complete control)
Entries and their Oat, Wild plant response rating

molecular.string | Oat, Wild plant response rating
CC(=O)Oc1c(C)nn(C)c(=O)c1-c1c([N+](=O)[O-])ccc2ccccc12 | 45
COC(=O)Oc1c(Br)nn(C)c(=O)c1-c1c(C)ccc2ccccc12 | 70
COc1nn(C)c(=O)c(-c2c(C)ccc3ccccc23)c1OC(C)=O | 80
Cc1cc(C)c2ccccc2c1-c1c(OS(C)(=O)=O)c(C)nn(C)c1=O | 80
Cc1ccc2ccccc2c1-c1c(OC(=O)N2CCOCC2)c(Br)nn(C)c1=O | 5

====

Tested on: morningglory (Ipomoea coccinea)
Test: Test C greenhouse herbicide test, pre- and postemergence
Type: in vivo
Settings: Postemergence, 62 g ai/ha; 0 to 100 scale (0 no effect, 100 complete control)
Entries and their Morningglory plant response rating

molecular.string | Morningglory plant response rating
CCC(=O)Oc1c(C)nn(C)c(=O)c1-c1ccc(Br)c2ccccc12 | 100
COC(=O)Oc1cnn(C)c(=O)c1-c1c(C)ccc2ccccc12 | 65
CC(=O)Oc1c(C)nn(C)c(=O)c1-c1c([N+](=O)[O-])ccc2ccccc12 | 85
Cc1nn(C)c(=O)c(-c2cccc3ccc(C#N)cc23)c1O | 75

====

Tested on: velvetleaf (Abutilon theophrasti)
Test: Test C greenhouse herbicide test, pre- and postemergence
Format: in vivo
Conditions: Preemergence, 250 g ai/ha; scale 0 to 100 (0 no effect, 100 complete control)
Entries and their Velvetleaf plant response rating

molecular.string | system | Velvetleaf plant response rating
Cc1ccc2sc(C)c(-c3c(O)c(C)nn(C)c3=O)c2c1 | velvetleaf (Abutilon theophrasti) | 98
CC(=O)Oc1c(C)nn(C)c(=O)c1-c1c(C)cc(C)c2ccccc12 | velvetleaf (Abutilon theophrasti) | 90
CCOC(=O)Oc1c(C)nn(C)c(=O)c1-c1c(CC)ccc2ccccc12 | velvetleaf (Abutilon theophrasti) | 90
Cc1cc(C)c2sc(C)c(-c3c(OC(=O)OCCCl)c(C)nn(C)c3=O)c2c1 | velvetleaf (Abutilon theophrasti) | 90
CCC(=O)Oc1c(C)nn(C)c(=O)c1-c1c(C)sc2ccc(Cl)cc12 | velvetleaf (Abutilon theophrasti) | 90
Cc1cc(C)c2sc(C)c(-c3c(OC(=O)OC(C)C)c(C)nn(C)c3=O)c2c1 | velvetleaf (Abutilon theophrasti) | 75
CCCC(=O)Oc1c(C)nn(C)c(=O)c1-c1c(C)sc2c(C)cc(C)cc12 | velvetleaf (Abutilon theophrasti) | 90
COC(=O)Oc1c(Br)nn(C)c(=O)c1-c1c(C)ccc2ccccc12 | velvetleaf (Abutilon theophrasti) | 100

====

Entries and their Plant response rating, Foxtail, Giant
Tested on: foxtail, giant (giant foxtail, Setaria faberii)
Assay: Test A greenhouse herbicide test, pre- and postemergence
Assay type: in vivo
Details: Postemergence, 125 g ai/ha; 0 to 100 scale where 0 is no effect and 100 is complete control
Excerpt: […]
observable: Plant response rating, Foxtail, Giant

molecular.string | numeric.value
CC(=O)Oc1c(C)nn(C)c(=O)c1-c1c(C(F)(F)F)ccc2ccccc12 | 30
Cc1cc(C)c2c(-c3c(OC(=O)C(C)(C)C)c(C)nn(C)c3=O)c(C)sc2c1 | 0
Cc1nn(C)c(=O)c(-c2c(C)sc3ccccc23)c1O | 20
Cc1ccc2ccccc2c1-c1c(O)c(Cl)nn(C)c1=O | 90
COc1nn(C)c(=O)c(-c2c(C)sc3ccc(Cl)cc23)c1OS(C)(=O)=O | 0
C#Cc1ccc2cccc(-c3c(O)c(C)nn(C)c3=O)c2c1 | 0
Cc1nn(C)c(=O)c(-c2cc(F)cc3ccccc23)c1OS(C)(=O)=O | 20
Cc1ccc2ccccc2c1-c1c(OC(=O)C2CC2)c(C)nn(C)c1=O | 0
Cc1ccc2ccccc2c1-c1c(O)c(C)nn(C)c1=O | 90

====

System: galium (catchweed bedstraw, Galium aparine)
Assay: Test C greenhouse herbicide test, pre- and postemergence
Type: in vivo
Details: Preemergence, 250 g ai/ha; scale 0 to 100 (0 no effect, 100 complete control)
Entries and their Galium plant response rating

molecular.string | Galium plant response rating
Cc1cc(C)c2sc(C)c(-c3c(OC(=O)OC(C)C)c(C)nn(C)c3=O)c2c1 | 90
CCC(=O)Oc1c(C)nn(C)c(=O)c1-c1c(C)sc2c(C)cc(C)cc12 | 95
CCC(=O)Oc1c(C)nn(C)c(=O)c1-c1c(C)sc2ccc(Cl)cc12 | 90
COc1nn(C)c(=O)c(-c2c(C)ccc3ccccc23)c1OC(C)=O | 98
CCC(=O)Oc1c(Cl)nn(C)c(=O)c1-c1c(C)sc2ccc(Cl)cc12 | 100
Cc1sc2ccc(Cl)cc2c1-c1c(OS(C)(=O)=O)c(Cl)nn(C)c1=O | 100
CCOC(=O)Oc1c(C)nn(C)c(=O)c1-c1c(C)sc2ccc(C)cc12 | 95
Cc1ccc2ccc(C)c(-c3c(O)c(C)nn(C)c3=O)c2c1 | 100
COc1nn(C)c(=O)c(-c2c(C)ccc3ccccc23)c1O | 100
CCOC(=O)Oc1c(C)nn(C)c(=O)c1-c1c(C)sc2c(C)cc(C)cc12 | 95

====

System: surinam grass (Brachiaria decumbens)
Experiment: Test E greenhouse herbicide test, pre- and postemergence
Format: in vivo
Details: 62 g ai/ha, Preemergence; scale 0 to 100 (0 no effect, 100 complete control)

molecule | system | Plant response rating, Surinam Grass
CCOC(=O)Oc1c(C)nn(C)c(=O)c1-c1c(C)sc2ccc(C)cc12 [Compound 82] | surinam grass (Brachiaria decumbens) | 65
CCOC(=O)Oc1c(C)nn(C)c(=O)c1-c1c(CC)ccc2ccccc12 [Compound 37] | surinam grass (Brachiaria decumbens) | 75
CC(=O)Oc1c(C)nn(C)c(=O)c1-c1c(C)sc2ccc(C)cc12 [Compound 25] | surinam grass (Brachiaria decumbens) | 80
Cc1cc(C)c2sc(C)c(-c3c(OC(=O)OCCCl)c(C)nn(C)c3=O)c2c1 [Compound 85] | surinam grass (Brachiaria decumbens) | 70
CCOC(=O)Oc1c(C)nn(C)c(=O)c1-c1c(C)sc2c(C)cc(C)cc12 [Compound 83] | surinam grass (Brachiaria decumbens) | 60

====

Entries and their Waterhemp plant response rating
Test system: waterhemp (common waterhemp, Amaranthus rudis)
Experiment: Test C greenhouse herbicide test, pre- and postemergence
Assay type: in vivo
Details: postemergence, 125 g ai/ha; scale 0 to 100, 0 no effect, 100 complete control
observable: Waterhemp plant response rating

molecular.string | observable | result
Cc1ccc2ccccc2c1-c1c(OC(=O)N2CCOCC2)c(Br)nn(C)c1=O | Waterhemp plant response rating | 60
CSCC(=O)Oc1c(C)nn(C)c(=O)c1-c1cccc2ccccc12 | Waterhemp plant response rating | 98
CCC(=O)Oc1c(C)nn(C)c(=O)c1-c1ccc(Br)c2ccccc12 | Waterhemp plant response rating | 100
COC(=O)Oc1c(C)nn(C)c(=O)c1-c1c([N+](=O)[O-])ccc2ccccc12 | Waterhemp plant response rating | 70
CC(=O)Oc1c(C)nn(C)c(=O)c1-c1c([N+](=O)[O-])ccc2ccccc12 | Waterhemp plant response rating | 70
COc1nn(C)c(=O)c(-c2c(C)ccc3ccccc23)c1OC(C)=O | Waterhemp plant response rating | 98
